Quick reference for EC50 among some compounds
molecular target: NL20 human bronchial epithelial cells expressing human Z-AAT (Homo sapiens, UniProt P01009, E366K); experiment: AAT Function Assay (MSD Assay NL20-SI Cell Line); settings: functionally active AAT in supernatant of NL20 cells expressing human Z-AAT, complex with hNE, MSD readout; read-out: NL20 Functional EC50
Sequence (P01009 25-418 E366K): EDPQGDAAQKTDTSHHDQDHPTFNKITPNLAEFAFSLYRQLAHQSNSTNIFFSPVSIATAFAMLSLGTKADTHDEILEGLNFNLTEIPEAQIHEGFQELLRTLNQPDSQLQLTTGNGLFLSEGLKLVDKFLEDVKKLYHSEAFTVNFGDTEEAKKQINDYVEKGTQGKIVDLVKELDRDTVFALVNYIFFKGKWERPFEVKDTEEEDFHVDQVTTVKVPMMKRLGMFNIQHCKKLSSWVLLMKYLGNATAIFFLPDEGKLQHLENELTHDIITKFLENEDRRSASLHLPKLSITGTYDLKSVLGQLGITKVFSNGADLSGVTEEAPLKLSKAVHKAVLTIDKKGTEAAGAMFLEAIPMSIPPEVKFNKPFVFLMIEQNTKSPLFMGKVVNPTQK
MEASUREMENT TYPE: EC50

compound="CC1(C)COC(C)(COCC(=O)O)c2c1n(-c1ccc(F)cc1)c1cccc(O)c21 (stereo not drawn)" recorded_value="1200 to 3000 nM"
compound=CN(C)C(=O)[C@]1(C)C[C@@]2(C1)OCC(C)(C)c1c2c2c(O)cccc2n1-c1ccc(F)cc1 recorded_value="1200 to 3000 nM"
compound="CC1(C)COC(C)(CC2(C(=O)O)CCC2)c2c1n(-c1ccc(F)cc1)c1cccc(O)c21 (stereo not drawn)" recorded_value="1200 to 3000 nM"
compound="CC1(C)COC(C)(c2ccc(OCC(=O)O)cc2)c2c1n(-c1ccc(F)c(F)c1)c1cccc(O)c21 (stereo not drawn)" recorded_value="< 1200 nM"
compound=CC1(C)CO[C@]2(CC[C@@](CF)(C(=O)O)CC2)c2c1n(-c1ccc(F)c(Cl)c1)c1cccc(O)c12 recorded_value="< 1200 nM"
compound="Cc1ccc(-n2c3c(c4c(O)cccc42)C(C)(c2ccc(C(=O)O)cc2F)OCC3(C)C)cc1F (stereo not drawn)" recorded_value="> 3000 nM"
compound="CC1(C)COC(C)(c2csc(C(=O)O)c2)c2c1n(-c1ccc(F)c(F)c1)c1cccc(O)c21 (stereo not drawn) [Compound 53]" recorded_value="< 1200 nM"
compound="CC1(C)COC(C)(c2csc(C(=O)O)c2)c2c1n(-c1ccc(F)c(F)c1)c1cc(F)cc(O)c21 (racemic) [Compound 67]" recorded_value="< 1200 nM"
compound=CC1(C)CO[C@]2(C[C@](CF)(C(=O)O)C2)c2c1n(-c1ccc(F)c(F)c1)c1cccc(O)c12 recorded_value="> 3000 nM"
compound=CC1(C)CO[C@]2(CC[C@@](F)(C(=O)O)CC2)c2c1n(-c1ccc(F)c(F)c1)c1cccc(O)c12 recorded_value="1200 to 3000 nM"
compound="CC1(C)COC(C2CC(C(=O)O)C2)c2c1n(-c1ccc(F)cc1)c1cccc(O)c21 (stereo not drawn) [Compound 114]" recorded_value="1200 to 3000 nM"
compound="CC1(C)COC(C)(c2csc(C(=O)O)c2)c2c1n(-c1ccc(F)c(F)c1)c1cccc(O)c21 (stereo not drawn) [Compound 35]" recorded_value="< 1200 nM"
compound=CC1(C)CO[C@]2(C[C@](C(=O)O)(C(F)(F)F)C2)c2c1n(-c1ccc(F)c(F)c1)c1cc(F)cc(O)c12 recorded_value="< 1200 nM"
compound=CC1(C)CO[C@]2(CC[C@@H](OCC(=O)O)CC2)c2c1n(-c1ccc(F)cc1)c1cccc(O)c12 recorded_value="1200 to 3000 nM"
compound="CC1(C)COC(C)(c2cc(C(=O)O)co2)c2c1n(-c1ccc(F)cc1)c1cccc(O)c21 (racemic) [Compound 123]" recorded_value="< 1200 nM"
